target: T1, cTnI quality control product recombinant protein (human, UniProt P19429 1-210, limits assumed); test: AMC biosensor, antibody on sensor
T1 construct: the assay paragraphs only say cTnI; also called cardiac troponin I; cTnI antigen
T1 sequence (P19429 whole entry): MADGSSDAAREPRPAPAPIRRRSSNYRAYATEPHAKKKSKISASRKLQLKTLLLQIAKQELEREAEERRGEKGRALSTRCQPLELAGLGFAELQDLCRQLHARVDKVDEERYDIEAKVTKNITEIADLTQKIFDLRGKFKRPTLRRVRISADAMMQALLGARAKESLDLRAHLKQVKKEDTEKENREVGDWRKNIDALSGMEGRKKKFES
Exercise: for every item that follows, state its recorded kon.
Numbers only; they are read as M⁻¹ s⁻¹.

Note to self: kon recorded for Mutation 1-1 (antibody, V domains shown) VH: QVQLQQSGTELAKPGASVKFSCKASGYTFSTYWMYWIKQRPGQGLEWIGYINPSTGHTDYNQKFKDKATLTADKSSSTAYMQLNSLTSEDSAVYYCARRYYGPFGMDYWGQGTSVTVSS VL: EIFLTQSPAIMSASPGEKVTMTCSASSSVSYVHWYQQKSGTSPKRWIYDTSKIASGIPVRFSGSGSGTSYSLTISSMEAEDAATYYCQQWSTNPYTFGGGTKLEIKR was 15300

Note to self: kon recorded for Mutation 1-8 (antibody, V domains shown) VH: QVQLQQSGTELAKPGASVKFSCKASGYTFSTYWMYWIKQRPGQGLEWIGYINPSTGHTDYNQKFKDKATLTADKSSSTAYMQLNSLTSEDSAVYYCARRYWGPFGMDYWGQGTSVTVSS VL: EIFLTQSPAIMSASPGEKVTMTCSASTTVSYVHWYQQKSGTSPKRWLYDTSKIASGIPVRFSGSGSGTSYSLTISSMEAEDAATYYCQQWSTQPYTFGGGTKLEIKR was 11200

Note to self: kon recorded for Mutation 1-20 (antibody, V domains shown) VH: QVQLQQSGTELAKPGASVKFSCKASGYTFSTYWMYWIKQRPGQGLEWIGYLNPSSGHTDYNQKFKDKATLTADKSSSTAYMQLNSLTSEDSAVYYCARRYWGPFGMDYWGQGTSVTVSS VL: EIFLTQSPAIMSASPGEKVTMTCSASSTVSYVHWYQQKSGTSPKRWLYDTSKIASGIPVRFSGSGSGTSYSLTISSMEAEDAATYYCQQWSSQPYTFGGGTKLEIKR was 16600
